system_tested: T1, CRBN, Q96SW2;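 also: pooled lentiviral library of zinc finger degron-EGFP fusions in mCherry-positive Jurkat cells, FACS-sorted after compound exposure, with degron abundance counted by next-generation sequencing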
T1 chain: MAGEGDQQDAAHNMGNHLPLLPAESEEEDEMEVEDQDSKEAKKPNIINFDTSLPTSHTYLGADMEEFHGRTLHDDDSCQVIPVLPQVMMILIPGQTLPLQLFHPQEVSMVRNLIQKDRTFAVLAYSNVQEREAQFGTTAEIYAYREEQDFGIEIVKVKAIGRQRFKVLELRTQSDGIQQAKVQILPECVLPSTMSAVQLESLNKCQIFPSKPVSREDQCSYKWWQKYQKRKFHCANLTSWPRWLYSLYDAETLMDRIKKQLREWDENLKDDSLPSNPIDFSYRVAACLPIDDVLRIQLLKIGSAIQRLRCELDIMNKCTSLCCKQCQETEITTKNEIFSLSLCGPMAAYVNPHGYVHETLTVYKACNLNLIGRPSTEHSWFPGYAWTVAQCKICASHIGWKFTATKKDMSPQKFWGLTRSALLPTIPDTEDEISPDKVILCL
method_summary: log2 fold change of degron read counts, EGFP-low vs EGFP+ sorted cells (limma voom), compound-induced degradation; higher = more compound-induced degradation of the degron-EGFP fusion; degrons are variants of IKZF1/3 zinc finger 2; compound dose not given here
cond: Jurkat; 18 h; compound: compound 22 (5-morpholino-thalidomide)
In all, about 8,300 sequences were measured (“log2 fold change of degron read counts, EGFP-low vs EGFP+ sorted cells (limma voom), compound-induced degradation”: median about -1.1, highest 2% from about 3.2 on). The sample holds the highest values, similar sequences and a random draw of the others, so the mix is not that of the screen.
experimental_readout: log2 fold change of degron read counts
Answer field: number only, no words.

Completed entries (count: 3):
| sequence_chain | log2 fold change of degron read counts |
| --- | --- |
| FNCPVCGAHFTQKGNLLRHIKL [46F_47N_49P_50V_52G_53A_54H_55F_67L_, Q9UKT9] | 0.242 |
| FGCEICGATFTQKGNLLRHIKL [46F_47G_49E_50I_52G_53A_54T_55F_67L_, Q9UKT9] | 2.59 |
| LMCNQCGFMCTQKGNLLRHIKL [46L_47M_49N_50Q_52G_53F_54M_55C_67L_, Q9UKT9] | -1.89 |

The measured log2 fold change of degron read counts associated with FWCEICGATFTQKGNLLRHIKL [46F_47W_49E_50I_52G_53A_54T_55F_67L_, Q9UKT9] reads 3.73

Entry FVCNVCGARFTQKGNLLRHIKL [46F_47V_49N_50V_52G_53A_54R_55F_67L_, Q9UKT9] ; log2 fold change of degron read counts = 0.0526

The sequence listed as FVCEICGRYFTQKGNLLRHIKL [46F_47V_49E_50I_52G_53R_54Y_55F_67L_, Q9UKT9] shows log2 fold change of degron read counts equal to -1.93

The sequence FMCEQCGATFTQKGNLLRHIKL [46F_47M_49E_50Q_52G_53A_54T_55F_67L_, Q9UKT9] showed log2 fold change of degron read counts equal to -2.15

// provenance: the supplement of paper PMC12645437
